system: chicken gizzard smooth muscle myosin subfragment-1 chemically crosslinked to cardiac or skeletal actin (Gallus gallus)
measured quantity: IC50 (nM)

Example entries begin here.
N#Cc1ccccc1-c1ccc(C(=O)NCc2ccc(N)cn2)c(NCCc2cccc(F)c2)n1: 21
COCc1cccc(-c2ccc(C(=O)NCc3cccnc3)c(NCCc3cccc(F)c3)n2)c1: 5720
N#Cc1ccccc1-c1ccc(C(=O)NC[C@H]2CCCCN2C(=O)[C@H](N)CCN)c(NCCc2cccc(F)c2)n1: 399
COC(=O)c1cccc(CNC(=O)c2ccc(-c3ccccc3C#N)nc2NCCc2cccc(F)c2)n1: 64
N#Cc1ccccc1CCNc1nc(-c2ccccc2)ccc1C(=O)NCc1cccnc1: 260
O=C(NCC1CCCO1)c1ccc(-c2ccccc2)nc1NCCc1ccccn1 (stereo not drawn): 11000

1 = N#Cc1ccccc1-c1ccc(C(=O)NC[C@H]2CCCN2C(=O)CCCN)c(NCCc2cc(F)cc(F)c2)n1
2 = COC(=O)[C@@H](N)CNC(=O)c1ccc(-c2ccccc2C#N)nc1NCCc1cccc(F)c1
Enquiry: Field: lower recorded IC50 (choose 1 or 2 ) // output: label of the selected item
Return: 1
(1: 23 nM, 2: 619 nM)

* * *

system: chicken gizzard smooth muscle myosin subfragment-1 chemically crosslinked to cardiac or skeletal actin (Gallus gallus)
pIC50: −log10 of the molar value.
measured quantity: pIC50

Example entries begin here.
Cc1cc(C(=O)NC[C@H]2CCCN2C(=O)CCCN)c(NCCc2cccc(F)c2)nc1-c1cnn(C)c1: 6.42
CC(=O)N1CCCC(CNC(=O)c2ccc(-c3ccccc3)nc2NCCc2ccccn2)C1 (stereo not drawn): 4.31

I = N#Cc1ccccc1-c1ccc(C(=O)NCc2ccn(CCCN)n2)c(NCCc2cccc(F)c2)n1
II = N#Cc1ccccc1-c1ccc(C(=O)NCc2ncco2)c(NCCc2cccc(F)c2)n1
Enquiry: Of the two listed items, which has the higher pIC50? First: I Second: II // output: label of the selected item
Return: II

1 = N#Cc1ccccc1-c1ccc(C(=O)NCCCN2C(=O)CC[C@@H]2CN=[N+]=[N-])c(NCCc2cccc(F)c2)n1
2 = NC(=O)CCNC(=O)c1ccc(-c2ccc(CO)s2)nc1NCCc1cccc(F)c1
3 = N#Cc1ccccc1-c1ccc(C(=O)NCCN2CCNCC2)c(NCCc2cccc(F)c2)n1
Enquiry: Sort the compounds on pIC50; start with the lowest figure. Quick reminder: the answer is the labels in the order asked.
Return: 3, 1, 2

P = CC(C)(C)OC(=O)NCCCC(=O)N1CCC[C@@H]1CNC(=O)c1cc(F)c(-c2ccccc2C#N)nc1NCCc1cccc(F)c1
Q = N#Cc1ccccc1-c1ccc(C(=O)NCC2CCCC(CN)C2)c(NCCc2cccc(F)c2)n1 (stereo not drawn)
Enquiry: Field: lower recorded pIC50 (choose P or Q ) // output: label of the selected item
Return: P
(P: 5.98, Q: 6.45)

* * *

system: chicken gizzard smooth muscle myosin subfragment-1 chemically crosslinked to cardiac or skeletal actin (Gallus gallus, UniProt P10587)
Sequence (P02607 2-151): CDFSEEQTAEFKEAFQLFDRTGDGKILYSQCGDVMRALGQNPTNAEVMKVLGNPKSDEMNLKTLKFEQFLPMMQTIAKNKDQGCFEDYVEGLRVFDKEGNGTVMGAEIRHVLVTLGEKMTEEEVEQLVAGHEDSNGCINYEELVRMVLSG
Sequence (P10587 84-789): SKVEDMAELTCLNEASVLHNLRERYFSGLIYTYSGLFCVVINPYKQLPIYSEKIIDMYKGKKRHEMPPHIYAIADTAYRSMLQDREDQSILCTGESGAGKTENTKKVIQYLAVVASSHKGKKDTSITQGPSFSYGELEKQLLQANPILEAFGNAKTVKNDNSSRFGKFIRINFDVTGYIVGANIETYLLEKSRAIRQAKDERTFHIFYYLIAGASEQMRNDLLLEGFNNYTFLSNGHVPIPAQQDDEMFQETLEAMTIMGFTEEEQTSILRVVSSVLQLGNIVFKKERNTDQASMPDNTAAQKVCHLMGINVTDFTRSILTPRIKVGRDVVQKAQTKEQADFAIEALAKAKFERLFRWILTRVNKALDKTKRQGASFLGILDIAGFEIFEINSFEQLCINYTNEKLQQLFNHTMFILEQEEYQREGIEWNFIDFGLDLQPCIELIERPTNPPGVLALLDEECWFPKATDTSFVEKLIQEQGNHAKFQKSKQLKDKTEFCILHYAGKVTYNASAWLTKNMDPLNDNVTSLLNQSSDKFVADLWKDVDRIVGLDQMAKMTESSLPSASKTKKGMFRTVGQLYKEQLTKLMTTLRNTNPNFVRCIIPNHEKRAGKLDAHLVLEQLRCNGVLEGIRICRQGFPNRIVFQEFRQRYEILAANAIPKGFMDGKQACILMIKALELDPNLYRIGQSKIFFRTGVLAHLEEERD
measured quantity: IC50 (nM)

Example entries begin here.
N#Cc1ccccc1-c1ccc(C(=O)NC[C@H]2CNCCN2C(=O)CCCN)c(NCCc2cccc(F)c2)n1: 5480
Cc1ccc(C)c(-c2ccc(C(=O)NCc3cccnc3)c(NCCc3ccccn3)n2)c1: 13600
Cn1cc(-c2nc(NCCc3cccc(F)c3)c(C(=O)NC[C@H]3CCCN3C(=O)CCN)cc2F)cn1: 70

I = C[C@@H](CO)CNC(=O)c1cc(F)c(-c2cnn(C)c2)nc1NCCc1cccc(F)c1
II = CC(C)(C)OC(=O)NCCCN1C(=O)CC[C@@H]1CNC(=O)c1cc(F)c(-c2cn[nH]c2)nc1NCCc1cccc(F)c1
III = N#Cc1ccccc1-c1ccc(C(=O)NC[C@H]2CCCN2C(=O)CN)c(NCCc2cccc(F)c2)n1
Enquiry: Sort the compounds on IC50; start with the lowest figure. Quick reminder: the answer is the labels in the order asked.
Return: III, I, II

a = O=C(NCc1cccnc1)c1ccc(-c2ccc(F)c(F)c2)nc1NCCc1cccc(F)c1
b = O=C(NCc1cccnc1)c1ccc(-c2nnn[nH]2)nc1NCCc1cccc(F)c1
c = N#Cc1ccccc1-c1ccc(C(=O)NCc2cccnc2CCN)c(NCCc2cccc(F)c2)n1
d = N#Cc1ccccc1-c1ccc(C(=O)NC[C@H]2CCCC(=O)N2CCCCN)c(NCCc2cccc(F)c2)n1
e = COC(=O)N1CC[C@@H]1CNC(=O)c1ccc(-c2ccccc2C#N)nc1NCCc1cccc(F)c1
Enquiry: Hello, I need these entries ordered by IC50, highest reading first. Thanks! Quick reminder: the answer is the labels in the order asked.
Return: b, a, e, d, c

a = C[C@H](CNC(=O)c1ccc(-c2ccccc2C#N)nc1NCCc1cccc(F)c1)N(C)C(=O)CCCN
b = N#Cc1ccccc1-c1ccc(C(=O)NC[C@H]2CCCCN2C(=O)CCCN)c(NCCc2cccc(F)c2)n1
c = N#Cc1ccccc1-c1ccc(C(=O)NC[C@H]2O[C@@H](O)[C@H](O)[C@@H](O)[C@@H]2O)c(NCCc2cccc(F)c2)n1
d = N#Cc1ccccc1-c1ccc(C(=O)NCc2ccc(F)cc2)c(NCCc2cccc(F)c2)n1
Enquiry: Hello, I need these entries ordered by IC50, highest reading first. Thanks! Quick reminder: the answer is the labels in the order asked.
Return: c, d, a, b

a = C[C@H](CNC(=O)c1cc(F)c(-c2cnn(C)c2)nc1NCCc1cccc(F)c1)NC(=O)CCCN
b = CC(C)(C)OC(=O)N1CCOC(CNC(=O)c2ccc(-c3ccccc3)nc2NCCc2ccccn2)C1 (stereo not drawn)
Enquiry: Of the two listed items, which has the higher IC50? First: a Second: b // output: label of the selected item
Return: b
(b: 65100 nM, a: 116 nM)

* * *

system: chicken gizzard smooth muscle myosin subfragment-1 chemically crosslinked to cardiac or skeletal actin (Gallus gallus)
pIC50: −log10 of the molar value.
measured quantity: pIC50

Example entries begin here.
CC(NC(=O)c1ccc(-c2ccccc2C#N)nc1NCCc1cccc(F)c1)C(N)=O (stereo not shown): 6.25
Cn1cc(-c2ccc(C(=O)NCc3cccnc3)c(NCCc3cccc(F)c3)n2)c(C#N)n1: 7.33
COC(=O)[C@H](C)NC(=O)c1ccc(-c2ccccc2C#N)nc1NCCc1cccc(F)c1: 5.16
N#Cc1ccccc1-c1ccc(C(=O)NCC(=O)NCCO)c(NCCc2cccc(F)c2)n1: 5.68
CN(C)c1ccc(-c2ccc(C(=O)NCc3cccnc3)c(NCCc3ccccn3)n2)cc1: 6.09
COC(=O)CCCNC(=O)c1ccc(-c2ccccc2C#N)nc1NCCc1cccc(F)c1: 6.15
O=C(NCC1CCNC1=O)c1ccc(-c2cn[nH]c2)nc1NCCc1cccc(F)c1 (stereo not shown): 6.74
CC(C)(C)OC(=O)NCCCC(=O)N1CCC[C@H](CNC(=O)c2ccc(-c3ccccc3C#N)nc2NCCc2cccc(F)c2)C1: 5.21
CS(=O)(=O)NCC1CCCCN1C(=O)c1ccc(-c2ccccc2)nc1NCCc1ccccn1 (stereo not shown): 4.65
N#Cc1ccccc1-c1ccc(C(=O)NCC2CCCCCN2)c(NCCc2cccc(F)c2)n1 (stereo not shown): 5.60

a = N#Cc1ccccc1-c1nc(NCCc2cccc(F)c2)c(C(=O)NC[C@H]2CCCN2C(=O)C(O)CO)cc1F (stereo partly shown)
b = COc1ccc(CNC(=O)c2ccc(-c3ccccc3C#N)nc2NCCc2cccc(F)c2)cn1
Enquiry: Of the two listed items, which has the higher pIC50? First: a Second: b // output: label of the selected item
Return: a
(a: 6.96, b: 5.09)

* * *

system: chicken gizzard smooth muscle myosin subfragment-1 chemically crosslinked to cardiac or skeletal actin (Gallus gallus)
measured quantity: IC50 (nM)

Example entries begin here.
CC(C)(C)OC(=O)NCCC(=O)N1CCC[C@@H]1CNC(=O)c1cc(F)c(-c2cn[nH]c2)nc1NCCc1cccc(F)c1: 980
N#Cc1ccccc1-c1ccc(C(=O)NCCc2ccccn2)c(NCCc2cccc(F)c2)n1: 291
NC(=O)CNCC(O)c1ccc(-c2ccccc2)nc1NCCc1cccc(F)c1 (stereo not drawn): 51600
N#Cc1ccccc1-c1ccc(C(=O)N[C@H](CCCNC(=O)OCc2ccccc2)C(N)=O)c(NCCc2cccc(F)c2)n1: 19600
Cn1cc(-c2ccc(C(=O)NC[C@H]3CCCN3C(=O)CN)c(NCCc3cccc(F)c3)n2)cn1: 581

P = N#Cc1ccccc1-c1ccc(C(=O)NCc2cnccn2)c(NCCc2cccc(F)c2)n1
Q = N#Cc1ccccc1-c1ccc(C(=O)NC[C@H]2CCCN2C(=O)CCCN)c(NCCC2=CCCCC2)n1
Enquiry: Of the two listed items, which has the higher IC50? First: P Second: Q // output: label of the selected item
Return: Q
(Q: 133 nM, P: 26 nM)

* * *

system: chicken gizzard smooth muscle myosin subfragment-1 chemically crosslinked to cardiac or skeletal actin (Gallus gallus, UniProt P10587)
pIC50: −log10 of the molar value.
measured quantity: pIC50

Example entries begin here.
O=C(NCc1cccnc1)c1ccc(-c2ccccc2)nc1NCCc1ccc(F)cc1: 5.79
O=C(NCc1cccnc1)c1ccc(-c2cccc(Cl)c2)nc1NCCc1ccccn1: 5.71
O=C(NCc1cccnc1)c1ccc(-c2ccccc2Cl)nc1NCCc1ccccn1: 5.35
CC(C)(CNC(=O)c1ccc(-c2ccccc2C#N)nc1NCCc1cccc(F)c1)NC(=O)CCCNC(=O)OC(C)(C)C: 6.71
N#Cc1cc(C(=O)NC[C@H]2CCCN2C(=O)CCCN)c(NCCc2cccc(F)c2)nc1-c1cn[nH]c1: 6.44

a = N#Cc1ccccc1-c1ccc(C(=O)NCCc2ncccc2CN)c(NCCc2cccc(F)c2)n1
b = CN1CCNC[C@@H]1CNC(=O)c1ccc(-c2ccccc2C#N)nc1NCCc1cccc(F)c1
c = CC(C)(C)OC(=O)NCc1ncccc1CNC(=O)c1cc(F)c(-c2ccccc2C#N)nc1NCCc1cccc(F)c1
d = COC(=O)[C@@H](CNC(=O)c1cc(F)c(-c2cnn(C)c2)nc1NCCc1cccc(F)c1)NC(=O)OC(C)(C)C
e = NCc1cccc(CNC(=O)c2cc(Br)c(-c3ccccc3)nc2NCCc2cccc(F)c2)n1
Enquiry: Sort the compounds on pIC50; start with the lowest figure. Quick reminder: the answer is the labels in the order asked.
Return: d, b, c, e, a

A = CS(=O)(=O)N1CCC[C@@H]1CNC(=O)c1ccc(-c2ccccc2C#N)nc1NCCc1cccc(F)c1
B = CNC(=O)c1ccc(-c2ccccc2)nc1NCCc1ccccn1
Enquiry: Of the two listed items, which has the higher pIC50? First: A Second: B // output: label of the selected item
Return: A
(A: 5.84, B: 4.56)

I = CC(C)[C@H](CNC(=O)c1ccc(-c2ccccc2C#N)nc1NCCc1cccc(F)c1)NC(=O)CN
II = Cn1cc(-c2nc(NCCc3cccc(F)c3)c(C(=O)NC[C@H]3CCCN3C(=O)CCNC(=O)OC(C)(C)C)cc2F)cn1
Enquiry: Of the two listed items, which has the higher pIC50? First: I Second: II // output: label of the selected item
Return: II
